Assay: Human tumor cell line growth assay (SRB)
Format: cell-based
Details: human, SW-620 cells (colon), SW-620, 48 h
PROPERTY: LC50 (50% lethal concentration) at 48 h (µM)
Kindly answer with a numeric value in µM, unit omitted.

Cc1cc2nc3c4ccccc4n(CCN(C)C)c3nc2cc1C [B220, reference compound] ... 35
COc1ccc2c(c1)c1nc3cc(C)c(C)cc3nc1n2CCN(C)C [JBA-094] ... 5.53

Here is another compound to look at.
// query Would you mind telling me what LC50 (50% lethal concentration) at 48 h value was observed for Cc1cc2nc3c4cc(N)ccc4n(CCN(C)C)c3nc2cc1C [JBD-136] ?
// result 83.8

* * *

Test: Human tumor cell line growth assay (SRB)
Type: cell-based
Conditions: human, UACC-257 cells (melanoma), UACC-257, 48 h, read-out: LC50
PROPERTY: CC50 at 48 h (µM)
Return type: number; implicit unit µM.

Before answering, review these 3 worked examples.
Cc1cc2nc3c4cc(N)ccc4n(CCN(C)C)c3nc2cc1C ... 71.5
Cc1cc2nc3c4ccccc4n(CCN(C)C)c3nc2cc1C [B220, reference compound] ... 5.99
COc1ccc2c(c1)c1nc3cc(C)c(C)cc3nc1n2CCN(C)C ... 7.97

Query compound follows.
// query Please report the recorded CC50 at 48 h for Cc1cc2nc3c4cc([N+](=O)[O-])ccc4n(CCN(C)C)c3nc2cc1C .
// result 34.4

* * *

Assay: Human tumor cell line growth assay (SRB)
Type: cell-based
Settings: human, M14 cells (melanoma), M14, 48 h, read-out: LC50
Catalogue of CC50 at 48 h values
Record the value in µM, omitting the unit from your answer.

Cc1cc2nc3c4cc(O)ccc4n(CCN(C)C)c3nc2cc1C [JBD-139] ... 5.15

// query // returns reported CC50 at 48 h for input Cc1cc2nc3c4cc(N)ccc4n(CCN(C)C)c3nc2cc1C [JBD-136]
// result 6.43

// query Which measured CC50 at 48 h value corresponds to COc1ccc2c(c1)c1nc3cc(C)c(C)cc3nc1n2CCN(C)C [JBA-094] ?
// result 5.89

// query What value of CC50 at 48 h has been recorded for this entry: Cc1cc2nc3c4cc([N+](=O)[O-])ccc4n(CCN(C)C)c3nc2cc1C [JBA-185]
// result 7.28

// query Tell me the measured CC50 at 48 h of Cc1cc2nc3c4ccccc4n(CCN(C)C)c3nc2cc1C [B220, reference compound] , please.
// result 75.1

* * *

Tested on: EKVX
Binarize GI50 at 1000 nM; below is yes, at or above is no.

// query Please let me know if Cc1cc2nc3c4cc(N)ccc4n(CCN(C)C)c3nc2cc1C [JBD-136] shows GI50 below 1000 nM.
// result no

// query Strictly below 1000 nM in GI50? Cc1cc2nc3c4cc([N+](=O)[O-])ccc4n(CCN(C)C)c3nc2cc1C [JBA-185]
// result yes

// query GI50 under 1000 nM? Item: COc1ccc2c(c1)c1nc3cc(C)c(C)cc3nc1n2CCN(C)C [JBA-094]
// result no

// query Say whether its GI50 is strictly beneath 1000 nM. Entry: Cc1cc2nc3c4cc(O)ccc4n(CCN(C)C)c3nc2cc1C [JBD-139]
// result no

// query Hi there! Is GI50 for Cc1cc2nc3c4ccccc4n(CCN(C)C)c3nc2cc1C [B220, reference compound] below 1000 nM, do you know?
// result no

* * *

OVCAR-8 measurements of GI50, listed per entry.
Form field: result (number plus unit)

Known GI50 results, listed for orientation:
Cc1cc2nc3c4ccccc4n(CCN(C)C)c3nc2cc1C [B220, reference compound] ... 1160 nM
Cc1cc2nc3c4cc([N+](=O)[O-])ccc4n(CCN(C)C)c3nc2cc1C ... 550 nM
Cc1cc2nc3c4cc(N)ccc4n(CCN(C)C)c3nc2cc1C ... 556 nM
Cc1cc2nc3c4cc(O)ccc4n(CCN(C)C)c3nc2cc1C ... 412 nM

// query # get_value(readout='GI50', item= COc1ccc2c(c1)c1nc3cc(C)c(C)cc3nc1n2CCN(C)C )
// result 531 nM

* * *

Experiment: Human tumor cell line growth assay (SRB)
Type: cell-based
Conditions: human, SNB-19 cells (CNS), SNB-19, 48 h, read-out: LC50
PROPERTY: CC50 at 48 h (µM)
// return numeric value only (unit: µM, not printed)

// query Entry Cc1cc2nc3c4ccccc4n(CCN(C)C)c3nc2cc1C [B220, reference compound] : reported CC50 at 48 h = ?
// result 68.6

// query Quick check: CC50 at 48 h of COc1ccc2c(c1)c1nc3cc(C)c(C)cc3nc1n2CCN(C)C ?
// result 6.34

* * *

Assay: Human tumor cell line growth assay (SRB)
Format: cell-based
Details: human, OVCAR-3 cells (ovarian), OVCAR-3, 48 h, read-out: LC50
PROPERTY: CC50 at 48 h (µM)
Numeric only. Scale: µM

Cc1cc2nc3c4cc(N)ccc4n(CCN(C)C)c3nc2cc1C [JBD-136] ... 75.8
COc1ccc2c(c1)c1nc3cc(C)c(C)cc3nc1n2CCN(C)C [JBA-094] ... 6.13

Consider now this further compound.
// query Would you mind telling me what CC50 at 48 h value was observed for Cc1cc2nc3c4ccccc4n(CCN(C)C)c3nc2cc1C [B220, reference compound] ?
// result 56.8

* * *

Each item that follows carries a reported CC50 at 48 h.
Assay: Human tumor cell line growth assay (SRB)
Type: cell-based
Settings: human, UACC-62 cells (melanoma), UACC-62, 48 h, read-out: LC50
Just the number please, in µM, no unit attached.

Cc1cc2nc3c4cc(N)ccc4n(CCN(C)C)c3nc2cc1C ... 7.99
Cc1cc2nc3c4cc([N+](=O)[O-])ccc4n(CCN(C)C)c3nc2cc1C ... 5.78
COc1ccc2c(c1)c1nc3cc(C)c(C)cc3nc1n2CCN(C)C ... 6.7
Cc1cc2nc3c4cc(O)ccc4n(CCN(C)C)c3nc2cc1C ... 6.37

Now turn to the next molecule.
// query Returns the measured CC50 at 48 h for the input molecule. Input: Cc1cc2nc3c4ccccc4n(CCN(C)C)c3nc2cc1C [B220, reference compound]
// result 5.58

* * *

Test system: ACHN
Assay: Human tumor cell line growth assay (SRB)
Assay type: cell-based
Details: Renal, 48 h, read-out: LC50 (the source's name)
CC50 listing for selected molecules.
Response body: numeric value in µM, unit text excluded.

// solved cases for CC50 follow
Cc1cc2nc3c4cc(N)ccc4n(CCN(C)C)c3nc2cc1C [JBD-136] ... 57.3
Cc1cc2nc3c4cc([N+](=O)[O-])ccc4n(CCN(C)C)c3nc2cc1C [JBA-185] ... 2.46
Cc1cc2nc3c4ccccc4n(CCN(C)C)c3nc2cc1C [B220, reference compound] ... 42.2

Consider the additional molecule presented here.
// query Request the reported CC50 associated with COc1ccc2c(c1)c1nc3cc(C)c(C)cc3nc1n2CCN(C)C [JBA-094]
// result 3.96

* * *

Read-out record for U251: GI50
# number then unit; no other words

Consider the reported GI50 for these molecules:
Cc1cc2nc3c4cc(N)ccc4n(CCN(C)C)c3nc2cc1C ... 640 nM
Cc1cc2nc3c4cc([N+](=O)[O-])ccc4n(CCN(C)C)c3nc2cc1C ... 470 nM

// query Any idea what GI50 came out for Cc1cc2nc3c4cc(O)ccc4n(CCN(C)C)c3nc2cc1C on U251?
// result 356 nM

// query Test system U251; read-out GI50; what value for COc1ccc2c(c1)c1nc3cc(C)c(C)cc3nc1n2CCN(C)C ?
// result 526 nM

// query Find GI50 (U251) for the entry Cc1cc2nc3c4ccccc4n(CCN(C)C)c3nc2cc1C [B220, reference compound]
// result 2010 nM

* * *

Test system: NCI/ADR-RES
Assay: Human tumor cell line growth assay (SRB)
Format: cell-based
Conditions: Ovarian, 48 h, read-out: LC50 (the source's name)
PROPERTY: CC50

Cc1cc2nc3c4cc([N+](=O)[O-])ccc4n(CCN(C)C)c3nc2cc1C [JBA-185] ... > 100 µM

// query Find CC50 (NCI/ADR-RES) for the entry Cc1cc2nc3c4cc(O)ccc4n(CCN(C)C)c3nc2cc1C [JBD-139]
// result > 100 µM

// query Lab note: need CC50 for Cc1cc2nc3c4cc(N)ccc4n(CCN(C)C)c3nc2cc1C [JBD-136] on NCI/ADR-RES, anyone have it?
// result > 100 µM

// query Provide the documented CC50 with NCI/ADR-RES as the system for Cc1cc2nc3c4ccccc4n(CCN(C)C)c3nc2cc1C [B220, reference compound]
// result 90.2 µM
